// data source = patent US20230374132A1

Parameter: kon. Scope: all listed entries.
Subject of test: T1, human CD3 E&D complex protein (Sino Biological Inc., CT026H0323H) (human, UniProt P07766 23-126; P04234 22-105)
T1 construct: bought heterodimer; also called human CD3 protein (CT026H0323H)
Experiment: BLI, antibody on sensor

Binder: hzsp34.84 (antibody, human IgG1, lambda, L234A L235A, V domains shown, CDR mutant of hzsp34.24; IgG1 L234A L235A, lambda) VH: EVQLVESGGGLVQPGGSLKLSCAASGFTFNTYAMNWVRQASGKGLEWVGRIRSKYGNYATYYADSVKDRFTISRDDSKSTLYLQMNSLKTEDTAVYYCARHGNFGQSYVSWFAYWGQGTTVTVSS VL: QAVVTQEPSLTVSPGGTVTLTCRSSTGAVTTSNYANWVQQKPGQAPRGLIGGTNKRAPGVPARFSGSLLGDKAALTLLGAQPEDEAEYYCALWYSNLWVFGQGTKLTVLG
kon: 246000 M⁻¹ s⁻¹

Binder: hzsp34.24 (antibody, human IgG1, lambda, L234A L235A, V domains shown, IgG1 L234A L235A, lambda; parent of the CDR mutants) VH: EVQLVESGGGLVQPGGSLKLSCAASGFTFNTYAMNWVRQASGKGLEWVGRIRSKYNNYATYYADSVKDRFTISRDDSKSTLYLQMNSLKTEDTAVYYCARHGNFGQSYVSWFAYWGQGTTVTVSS VL: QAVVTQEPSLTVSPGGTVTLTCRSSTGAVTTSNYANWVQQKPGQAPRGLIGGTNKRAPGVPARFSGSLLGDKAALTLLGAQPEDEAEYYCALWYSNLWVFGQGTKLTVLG
kon: 240000 M⁻¹ s⁻¹
